All values here come from PubChem BioAssay (NCI).

- Test system: IGROV1 ovarian
- assay: NCI-60 one-dose screen, 48 h (100 = growth as untreated, 0 = no growth, -100 = all killed)
- condition_label: 10 µM
The panel holds about 83,000 compounds, 20% with a hit somewhere; the sample as a whole holds those more often.
The label depends only on growth: Fulfilled if it is at least 70%, Not fulfilled if it is smaller.

Q: Would you say `CNC(=O)c1cc(-c2ccc(NC(=O)Nc3ccc(C)cc3)cc2)nc2cccnc12` shows growth at minimum 70%?
A: Fulfilled

Q: Assess whether reported growth for `Cn1cc(-c2cc(N)n3nc(-c4c[nH]c5ccc(Br)cc45)cc3n2)c2cccnc21` sits at 70% or higher.
A: Not fulfilled

Q: Could you please find out whether COc1cc(/C=C/C(=O)c2ccc(NC(=O)CN3C(=O)NC(C)(c4ccccc4)C3=O)cc2)cc(OC)c1OC (centres undefined) has growth that meets 70% or exceeds it?
A: Not fulfilled

Q: Reported growth at or above 70%? `COC[C@@H](CC(C)C)N=C1NC(=O)/C(=C/c2ccc3ncoc3c2)N1`
A: Not fulfilled

Q: Has `Cc1cccc2cc(-c3cc(-c4ccccc4)nc(=S)[nH]3)c(Cl)nc12` a recorded growth greater than or equal to 70%?
A: Fulfilled

Q: Reported growth reaches at least 70% for C/C(=C\CSc1ccccc1C(=O)O)CCCC(C)CCCC(C)CCCC(C)C (centres undefined) ?
A: Fulfilled

Q: In plain terms: is recorded growth at least 70% for `CC1(C)[C@@H](NCO)CC[C@]2(C)[C@H]3C(=O)C=C4[C@@H]5C[C@](C)(CO)CC[C@]5(C)CC[C@@]4(C)[C@]3(C)CC[C@@H]12` ?
A: Not fulfilled

Q: # bool: growth of `COc1ccc(-c2nc(Nc3ccccc3S(N)(=O)=O)c3ccccc3n2)cc1` >= 70%
A: Not fulfilled

----------
- Test system: SN12C renal
- assay: NCI-60 one-dose screen, 48 h
- condition_label: 10 µM
About 83,000 compounds went through this panel and 20% of them were active in at least one assay; those are over-represented in the sample as a whole. Calls of active or inactive are those of the source. How the source made its calls: active means growth percent below 10; inactive means the rest.
Hi there, use one of these labels in your reply, thanks! Yes (active), No (inactive)

Q: Just curious, what result did `Cc1ccc2nc(COc3ccc(C(=O)NNC(=S)NCCc4ccccc4)cc3)[nH]c2c1` get here?
A: No

Q: Per the records of this test, what outcome belongs to `Cc1ccc(-c2ccc(SCC(=O)Nc3ccc(S(N)(=O)=O)cc3Br)nn2)cc1` ?
A: No

Q: Assay result, entry `NS(=O)(=O)c1ccc(N=Nc2c(O)n(CC(=O)Nc3ccccc3Br)c3ccccc23)cc1` — outcome?
A: No

Q: For `[2H]C([2H])([2H])Oc1ccc2ncc(C#Cc3cncc(C(=O)Nc4ccc(CN5CCN(C)CC5)c(C(F)(F)F)c4)c3)n2n1` , what call appears in the results of this test?
A: Yes

Q: Hello, I am checking results. What call was entered for `Cc1ccc2nc3c(nc2c1)c1cc(I)ccc1n3CCN(C)C` ?
A: No

Q: Kindly provide the recorded test outcome for the following compound: `O=C1Nc2cc(Cl)ccc2/C1=C/c1cccc(OCc2ccccc2)c1`
A: Yes

Q: GET /call?item= `Cc1nc2c(cnn2-c2ccccc2)c(=O)n1-c1ccc(NC(=O)c2ccc(F)cc2)cc1` returns the recorded outcome of this test.
A: No

Q: Field: outcome | Entry: `COc1ccc2[nH]c(O)c(N=NC(=O)COc3ccc(NC(=O)Nc4ccc(Cl)c(Cl)c4)cc3)c2c1`
A: Yes

Q: So what was the verdict on `CC(=O)Nc1ccc(-n2cnc3cc(-c4ccc(O)cc4)ccc32)cc1F` in this test?
A: No

Q: Dear all, I need the recorded test outcome for `OCCNc1oc(-c2ccccc2)nc1[P+](c1ccccc1)(c1ccccc1)c1ccccc1` , thank you.
A: Yes

Q: Per the records of this test, what outcome belongs to `Cc1ccc(NC(=O)NCn2c(=O)[nH]c3ccccc3c2=O)cc1` ?
A: No

Q: Given `O=C(Nc1nc2ccc([N+](=O)[O-])cc2s1)Nc1ccccc1I` , state the outcome it received in this test.
A: Yes

Q: Please state the recorded outcome for this compound: `COc1ccc2[nH]cc(/C=N/Nc3ccc(Br)cn3)c2c1`
A: No

Q: // outcome(item) with item = `O=C(NCCCCCCCCCC[P+](c1ccccc1)(c1ccccc1)c1ccccc1)c1ccc(-n2nc(-c3ccccc3O)nc2-c2ccccc2O)cc1`
A: Yes

Q: GET /call?item= COc1cc2c(c(OC)c1OC)C(=O)CC(c1cccc(NC(=O)c3cccc(N)c3)c1)O2 (configuration not stated) returns the recorded outcome of this test.
A: No

Q: Per the records of this test, what outcome belongs to `C=C(C)[C@@H]1CC[C@]2(C(=O)OC)CC[C@]3(C)[C@H](CC[C@@H]4[C@@]5(C)CC[C@H](N)C(C)(C)[C@@H]5CC[C@]43C)[C@@H]12` ?
A: Yes

Q: Record lookup: outcome of this test for CCOC(=O)C1=C(N)N(c2ccccc2)C2=C(C(=O)CC(C)(C)C2)C1c1ccccc1OC (configuration not stated) ?
A: No
